System: RXF 393
PROTOCOL SUMMARY: NCI tumour cell line growth inhibition, 48 h
Active and inactive are the calls of the source. Cut-off read from the data, not from the text of the source: active = GI50 up to about 1.1 µM and inactive = higher.
// classify into class 1 = active, class 0 = inactive

# COMPOUND, DISCRETE LABEL
rows = [
    ("CCCCCC(/C=N/Nc1ccccc1)C(O)(C(F)(F)F)C(F)(F)F (stereo not given)", "class 0"),
    ("CCCCC(=O)Nc1ccc2cc(C(=O)OC)c(ON3C(=O)c4ccccc4C3=O)nc2n1", "class 0"),
    ("CN(C)CCNc1c([N+](=O)[O-])cc2c3c(cccc13)C(=O)N(CCN(C)C)C2=O", "class 0"),
    ("Cc1cccc2c1c1ccc3c(c1n2C)C(=O)C=CC3=O", "class 0"),
    ("CCOC(=O)CCC(=O)C1c2cccc(O)c2C(=O)c2c(O)cc(C)cc21 (stereo not given)", "class 1"),
    ("Cc1c(C2=NN=C(/N=N/c3c(O)cccc3O)/C2=C/c2ccccc2)c(=O)n(-c2ccccc2)n1C", "class 0"),
    ("O=[N+]([O-])C(C(Cl)=C(Cl)Cl)=C(n1nnc2ccccc21)n1nnc2ccccc21", "class 0"),
    ("NNC(=O)c1nnn(N)c1S", "class 0"),
]

Q) Each compound tested received a call. Report the one for COC(=O)C1(C)CC2C(C)(CCC3(C)C4=CC=C5C(=CC(=O)C(O)=C5C)C4(C)CCC23C)CC1O (stereo not given) .
A) class 1

Q) Continue with C=C(Cl)C(Cl)(CBr)CCC(Cl)C(C)C (stereo not given)
A) class 0
